As an illustration, consider measured IC50 for compounds on ACC2 (acetyl-CoA carboxylase 2) (Homo sapiens, UniProt O00763).
Sequence (O00763 39-2458 limits assumed): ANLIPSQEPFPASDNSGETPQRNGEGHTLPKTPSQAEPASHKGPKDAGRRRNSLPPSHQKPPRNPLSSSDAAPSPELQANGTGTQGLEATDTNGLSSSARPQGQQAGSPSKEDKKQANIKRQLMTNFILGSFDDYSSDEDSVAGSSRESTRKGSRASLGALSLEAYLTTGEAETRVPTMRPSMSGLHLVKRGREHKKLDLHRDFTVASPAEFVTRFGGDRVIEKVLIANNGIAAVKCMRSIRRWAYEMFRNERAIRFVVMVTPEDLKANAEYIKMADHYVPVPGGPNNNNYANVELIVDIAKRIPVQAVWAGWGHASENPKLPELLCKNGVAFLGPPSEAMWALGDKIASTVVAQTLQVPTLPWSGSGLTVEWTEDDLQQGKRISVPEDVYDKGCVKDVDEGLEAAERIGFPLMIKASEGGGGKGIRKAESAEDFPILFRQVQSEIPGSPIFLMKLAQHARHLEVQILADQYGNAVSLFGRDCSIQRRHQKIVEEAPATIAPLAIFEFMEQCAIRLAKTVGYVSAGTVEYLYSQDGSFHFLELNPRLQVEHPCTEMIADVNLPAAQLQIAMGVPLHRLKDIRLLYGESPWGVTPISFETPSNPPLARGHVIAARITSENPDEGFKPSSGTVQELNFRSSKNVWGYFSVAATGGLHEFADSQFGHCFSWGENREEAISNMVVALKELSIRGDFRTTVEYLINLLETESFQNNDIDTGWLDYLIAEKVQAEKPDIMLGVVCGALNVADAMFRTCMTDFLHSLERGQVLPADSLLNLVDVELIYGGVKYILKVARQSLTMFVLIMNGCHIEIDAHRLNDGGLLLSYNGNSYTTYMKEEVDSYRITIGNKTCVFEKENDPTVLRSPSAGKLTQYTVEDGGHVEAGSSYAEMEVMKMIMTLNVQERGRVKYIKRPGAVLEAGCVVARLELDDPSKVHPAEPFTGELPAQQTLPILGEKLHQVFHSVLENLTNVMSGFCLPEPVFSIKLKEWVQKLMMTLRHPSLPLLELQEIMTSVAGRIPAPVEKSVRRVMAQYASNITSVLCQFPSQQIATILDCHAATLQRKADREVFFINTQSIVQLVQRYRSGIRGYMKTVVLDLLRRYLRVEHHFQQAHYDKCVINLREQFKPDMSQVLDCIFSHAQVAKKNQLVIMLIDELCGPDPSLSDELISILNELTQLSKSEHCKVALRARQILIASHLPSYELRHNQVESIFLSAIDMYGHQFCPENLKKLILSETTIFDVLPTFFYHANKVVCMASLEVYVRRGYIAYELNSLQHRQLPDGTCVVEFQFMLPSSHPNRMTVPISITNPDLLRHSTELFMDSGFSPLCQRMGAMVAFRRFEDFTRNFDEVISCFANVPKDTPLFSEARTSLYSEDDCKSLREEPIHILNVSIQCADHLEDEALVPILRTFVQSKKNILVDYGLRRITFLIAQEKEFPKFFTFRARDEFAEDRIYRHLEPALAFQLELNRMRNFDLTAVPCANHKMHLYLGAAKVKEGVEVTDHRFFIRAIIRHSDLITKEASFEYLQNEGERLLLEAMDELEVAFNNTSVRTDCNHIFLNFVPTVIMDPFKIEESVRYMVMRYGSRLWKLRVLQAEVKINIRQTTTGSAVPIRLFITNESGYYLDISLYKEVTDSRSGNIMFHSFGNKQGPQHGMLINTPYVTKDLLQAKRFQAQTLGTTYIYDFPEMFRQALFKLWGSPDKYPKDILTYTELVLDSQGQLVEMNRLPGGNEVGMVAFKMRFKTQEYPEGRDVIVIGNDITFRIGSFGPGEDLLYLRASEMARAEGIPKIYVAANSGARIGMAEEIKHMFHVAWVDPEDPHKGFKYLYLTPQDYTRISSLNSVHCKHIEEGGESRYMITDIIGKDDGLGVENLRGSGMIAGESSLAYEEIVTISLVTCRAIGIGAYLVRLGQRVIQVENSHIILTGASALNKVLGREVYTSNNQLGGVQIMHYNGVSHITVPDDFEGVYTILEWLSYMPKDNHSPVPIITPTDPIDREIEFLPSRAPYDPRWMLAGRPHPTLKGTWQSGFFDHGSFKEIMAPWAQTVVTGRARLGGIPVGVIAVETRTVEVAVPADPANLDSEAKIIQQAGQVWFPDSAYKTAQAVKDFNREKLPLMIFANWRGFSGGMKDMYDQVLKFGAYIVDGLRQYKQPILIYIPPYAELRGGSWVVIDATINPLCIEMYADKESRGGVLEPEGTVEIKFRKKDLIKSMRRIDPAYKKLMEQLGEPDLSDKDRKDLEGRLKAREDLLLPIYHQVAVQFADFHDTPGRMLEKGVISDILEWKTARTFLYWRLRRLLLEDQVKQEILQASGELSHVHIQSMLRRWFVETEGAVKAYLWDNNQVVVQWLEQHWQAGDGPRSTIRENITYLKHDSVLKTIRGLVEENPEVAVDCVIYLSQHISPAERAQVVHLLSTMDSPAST
Answers are plain numbers, in µM.

Check out these entries, answers already filled in.
compound | output-unit | IC50
COCC1CCCC2(C1)NC(=O)C(c1cc(-c3ccc(Cl)cc3)ccc1C)=C2O (centres unmarked) [Example 1-51] | µM | 4.91
Cc1ccc(-c2ccc(Cl)cc2)cc1C1=C(O)C2(CCC3(CC2)OCCO3)NC1=O [Example 1-60] | µM | 2.33
O=C1NC2(CCC3(CC2)OCCO3)C(O)=C1c1cc(-c2ccc(Cl)cc2)ccc1Cl [Example 1-61] | µM | 3.91

Look up IC50 for the entries below, preserving their order.
1. Cc1ccc(-c2ccc(Cl)cc2)cc1C1=C(O)C2(CCCCC2)NC1=O [Example 1-77]
2. Cc1ccc(-c2ccc(Cl)cc2)cc1C1=C(O)C2(CCC(OCC(F)(F)F)CC2)OC1=O (centres unmarked) [Example 2-33]
3. CC1COC2(CCC3(CC2)NC(=O)C(c2cc(-c4ccc(Cl)cc4)ccc2Cl)=C3O)O1 (centres unmarked) [Example 1-68]
4. Cc1ccc(-c2ccc(Cl)cc2)c(C)c1C1=C(O)C2(CCC(OCC(F)(F)F)CC2)OC1=O (centres unmarked) [Example 2-32]

Solution:
[0.86, 3.59, 4.86, 1.6]

---

As an illustration, consider measured IC50 for compounds on UniProt:O00763.
One number for each entry, in µM.

Check out these entries, answers already filled in.
compound | target-desc | IC50 [µM]
COC1CCCC2(C1)NC(=O)C(c1c(C)ccc(-c3ccc(Cl)cc3)c1C)=C2O (centres unmarked) | UniProt:O00763 | 2.34
CO[C@H]1CC[C@]2(CC1)NC(=O)C(c1cc(-c3ccc(Cl)cc3)ccc1C)=C2O | UniProt:O00763 | 0.37
Cc1ccc(-c2ccc(Cl)cc2)cc1C1=C(O)C2(CCC3(CC2)OCC(C)CO3)NC1=O (centres unmarked) | UniProt:O00763 | 1.54

Look up IC50 for the entries below, preserving their order.
1. Cc1ccc(-c2ccc(C)c(C3=C(O)C4(CCCCC4)CC3=O)c2)cc1
2. Cc1cc(C)c(-c2ccc(Cl)cc2)c(C)c1C1=C(O)C(C)(C)OC1=O
3. Cc1cc(C)c(-c2ccc(Cl)cc2)cc1C1=C(O)C2(CCCOC2)OC1=O (centres unmarked)
4. Cc1ccc(-c2ccc(F)cc2)c(C)c1C1=C(O)C2(CCCCC2)NC1=O

Solution:
1: 16; 2: 5.72; 3: 7.61; 4: 15

---

- target-desc: recombinant human ACC1 (acetyl-CoA carboxylase 1) (Homo sapiens, UniProt Q13085)
- Construct: NM_198834, amino acids 39—end; FLAG (C)
- assay-text: Human ACC1 enzyme assay (HTRF ADP detection)
- experimental-setup: 50 μM ATP, 20 μM acetyl-CoA, 15 min pre-incubation, 20 min at 22° C.; read-out: ACC 1 IC50
Exercise: for every item that follows, state its recorded IC50.
One number for each entry, in nM.

Check out these entries, answers already filled in.
compound | IC50 [nM]
COCCC1CCCC2(C1)NC(=O)C(c1c(C)ccc(-c3ccc(Cl)cc3)c1C)=C2O (stereo not drawn) | 918
CCC1CCC2(CC1)OC(=O)C(c1cc(-c3ccc(Cl)cc3)ccc1C)=C2O (stereo not drawn) | 243
COC1CCC2(CC1)OC(=O)C(c1cc(-c3ccc(Cl)cc3)ccc1C)=C2O (stereo not drawn) | 216
Cc1ccc(-c2ccc(Cl)cc2)cc1C1C(=O)N(C)N(C)C1=O | 2400

Look up IC50 for the entries below, preserving their order.
1. COC1CCC2(CC1)OC(=O)C(c1cc(-c3ccc(Cl)cc3)c(C)cc1C)=C2O (stereo not drawn)
2. Cc1cc(C)c(-c2ccc(Cl)cc2)c(C)c1C1=C(O)C2(CCCCC2)OC1=O
3. O=C1NC2(CCC3(CC2)OCCO3)C(O)=C1c1cc(-c2ccc(Cl)cc2)ccc1Cl
4. Cc1ccc(-c2ccc(C)c(C3=C(O)C4(CCCCC4)NC3=O)c2)cc1

Solution:
1: 297; 2: 2150; 3: 227; 4: 353

Look up IC50 for the entries below, preserving their order.
1. Cc1ccc(-c2ccc(Cl)cc2)cc1C1=C(O)C2(CCC(OCC(F)(F)F)CC2)OC1=O (stereo not drawn)
2. COC1CCCC2(C1)NC(=O)C(c1c(C)ccc(-c3ccc(Cl)cc3)c1C)=C2O (stereo not drawn)
3. Cc1ccc(-c2ccc(Cl)cc2)c(C)c1C1=C(O)[C@]2(CC[C@H](OCC(F)(F)F)CC2)NC1=O
4. Cc1ccc(-c2ccc(Cl)cc2)cc1C1C(=O)N(C)OC(C)(C)C1=O (stereo not drawn)
5. Cc1ccc(-c2ccc(F)cc2)c(C)c1C1=C(O)C2(CCC(OCC(F)(F)F)CC2)NC1=O (stereo not drawn)
6. Cc1cc(C)c(-c2ccc(Cl)cc2)c(C)c1C1=C(O)C(C)(C)OC1=O
7. Cc1cc(C)c(-c2ccc(Cl)cc2)c(C)c1C1=C(O)[C@]2(CC[C@@]3(CCCO3)CC2)OC1=O
8. Cc1ccc(-c2ccc(Cl)cc2)cc1C1=C(O)C(C)(C)C(C)(C)NC1=O

Solution:
[229, 1180, 542, 4000, 963, 1480, 880, 1640]

Look up IC50 for the entries below, preserving their order.
1. Cc1ccc(-c2ccc(Cl)cc2)cc1C1=C(O)C(C)(C)CNC1=O
2. Cc1cc(C)c(-c2ccc(Cl)cc2)cc1C1=C(O)[C@]2(CC[C@@]3(CCCO3)CC2)OC1=O
3. Cc1ccc(-c2ccc(Cl)cc2)cc1C1=C(O)C2CSCCN2C1=O (stereo not drawn)

Solution:
1. 806
2. 281
3. 533

---

- target-desc: recombinant human ACC1 (acetyl-CoA carboxylase 1) (Homo sapiens, UniProt Q13085)
- Construct: NM_198834, amino acids 39—end; FLAG (C)
- assay-text: Human ACC1 enzyme assay (HTRF ADP detection);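 note: ADP by-product quantified by competitive HTRF immunoassay with europium cryptate anti-ADP antibody and d2-labelled ADP, read after 1 h binding at 22 °C, enzyme near 2.5 ng/µl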
- experimental-setup: 50 μM ATP, 20 μM acetyl-CoA, 15 min pre-incubation, 20 min at 22° C.; read-out: ACC 1 IC50
quantity-kind: pIC50
Give bare numbers, as −log10 of the molar value.

Check out these entries, answers already filled in.
molecule | assay-value
CCOCCO[C@@H]1CC[C@@]2(C1)NC(=O)C(c1cc(-c3ccc(Cl)cc3)ccc1C)=C2O (relative stereo) [Example 1-50] | 6.33
Cc1ccc(-c2ccc(C)c(C3=C(O)C4(CCCOC4)NC3=O)c2)cc1 (stereo not drawn) [Example 1-14] | 6.00
O=c1[nH]c2cc(Cl)ccc2c(O)c1-c1cc(-c2ccc(Cl)cc2)ccc1Cl [Example 9-13] | 6.48
Cc1ccc(-c2ccc(Cl)cc2)cc1C1=C(O)C2(CCCOC2)NC1=O (stereo not drawn) [Example 1-5] | 6.54
Cc1cc(C)c(-c2ccc(Cl)cc2)cc1C1=C(O)C2(CCSCC2)OC1=O [Example 2-42] | 6.45

Look up pIC50 for the entries below, preserving their order.
1. COCCC1CCC2(CC1)NC(=O)C(c1c(C)ccc(-c3ccc(Cl)cc3)c1C)=C2O (stereo not drawn) [Example 1-57]
2. Cc1ccc(-c2ccc(Cl)cc2)cc1C1=C(O)C2(CCOCC2)NC1=O [Example 1-6]
3. CCOC1CCC2(CC1)NC(=O)C(c1cc(-c3cccc(Cl)c3)ccc1C)=C2O (stereo not drawn) [Example 1-79]
4. CCCC1CCC2(CC1)NC(=O)C(c1cc(-c3ccc(Cl)cc3)ccc1C)=C2O (stereo not drawn) [Example 1-83]
5. Cc1ccc(-c2ccc(F)cc2)c(C)c1C1C(=O)N2CCCCN2C1=O [Example 8-1]
6. Cc1ccc(-c2ccc(Cl)cc2)c(C)c1C1=C(O)[C@]2(CC[C@]3(CCCO3)CC2)OC1=O [Example 2-26]
7. Cc1ccc(-c2ccc(Cl)cc2)cc1C1=C(O)C2(CCCCC2)NC1=O [Example 1-77]
8. Cc1cc(C)c(-c2ccc(Cl)cc2)cc1C1=C(O)C2(CCOCC2)OC1=O [Example 2-41]

Solution:
1. 6.10
2. 6.52
3. 6.07
4. 6.34
5. 5.61
6. 6.59
7. 6.49
8. 6.10

---

As an illustration, consider measured IC50 for compounds on UniProtKB O00763.
Numbers only, in µM.

Check out these entries, answers already filled in.
compound | IC50 / µM
Cc1ccc(-c2ccc(Cl)cc2)c(C)c1C1=C(O)C2(CCC(C)CC2)NC1=O (stereo not shown) | 0.33
Cc1ccc(-c2cccc(Cl)c2)cc1C1=C(O)C2(CCCCC2)CC1=O | 16.2

Then this compound:
Per the record, Cc1ccc(-c2ccc(Cl)cc2)cc1C1=C(O)[C@@]2(CC[C@H](OCC(C)C)C2)NC1=O (relative stereo) has IC50 of 9.9

---

- target-desc: ACC2 (acetyl-CoA carboxylase 2) (Homo sapiens)
pIC50: −log10 of the molar value.
# pIC50 binned as lo (below 5), mid (5 to below 6), hi (6 or more)

Here are 4 molecules together with their reported answers.
molecule | label-class
Cc1ccc(-c2ccc(Cl)cc2)cc1C1=C(O)C2(CCC(C)(C)CC2)NC1=O | hi
COCCC1CCCC2(C1)NC(=O)C(c1c(C)ccc(-c3ccc(Cl)cc3)c1C)=C2O (centres unmarked) | hi
Cc1ccc(-c2ccc(Cl)cc2)cc1C1=C(O)C2(CCC3(CC2)OCCO3)OC1=O | mid
Cc1ccc(-c2ccc(Cl)cc2)cc1C1=C(O)C2CSCCN2C1=O (centres unmarked) | lo

Problem: Determine which band this molecule sits in: Cc1ccc(-c2ccc(Cl)cc2)cc1C1=C(O)C2(CCC(C(C)C)CC2)NC1=O (centres unmarked)
Solution: hi

Problem: Determine which band this molecule sits in: O=c1[nH]c2cc(Cl)ccc2c(O)c1-c1cc(-c2ccc(Cl)cc2)ccc1Cl
Solution: mid
